Data credit: patent US5286729A

- EXPERIMENTAL_SYSTEM: Angiotensin II Receptor (Bos taurus, UniProt P25104)
- Construct: The brownish tissue forming the adrenal cortex is scraped off and finely minced with scissors before homogenization; from tissue; host or cells: beef adrenal cortex, microsomal (100,000 x g) membranes; adrenals from a local slaughter house (Maxwell-Cohen)
- Sequence (P25104 1-359): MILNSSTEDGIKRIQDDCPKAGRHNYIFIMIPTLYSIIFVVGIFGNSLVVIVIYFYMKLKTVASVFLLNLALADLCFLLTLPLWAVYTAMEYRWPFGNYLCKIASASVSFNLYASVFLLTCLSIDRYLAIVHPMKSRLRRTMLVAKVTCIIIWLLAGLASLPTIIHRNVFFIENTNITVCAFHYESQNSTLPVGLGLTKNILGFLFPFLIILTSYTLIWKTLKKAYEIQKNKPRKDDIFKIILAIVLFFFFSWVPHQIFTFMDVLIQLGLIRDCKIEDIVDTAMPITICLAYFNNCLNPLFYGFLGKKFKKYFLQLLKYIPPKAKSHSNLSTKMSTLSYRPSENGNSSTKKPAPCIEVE
- TEST_DETAILS: Receptor Binding Assay, binding of [125I](Sar1,Ile8)AngII to beef adrenal cortex membranes
- ASSAY_CONDITIONS: beef adrenal membranes; [125I](Sar1,Ile8)AngII; 60 min, room temperature, pH 7.4
Where a name gives a salt, the structure may show the parent alone.
VALUE_TYPE: pIC50
// field semantics: pIC50 = negative decimal log of concentration (mol/L)

Task: For the record CCCCc1nc2ccc(COc3ccccn3)cc2c(=O)n1Cc1ccc(-c2ccccc2-c2nn[nH]n2)cc1 [Example 12, monohydrochloride] , what value of pIC50 is listed for Angiotensin II Receptor (Bos taurus, UniProt P25104)?
Result: 6.89
